Sequence of the target: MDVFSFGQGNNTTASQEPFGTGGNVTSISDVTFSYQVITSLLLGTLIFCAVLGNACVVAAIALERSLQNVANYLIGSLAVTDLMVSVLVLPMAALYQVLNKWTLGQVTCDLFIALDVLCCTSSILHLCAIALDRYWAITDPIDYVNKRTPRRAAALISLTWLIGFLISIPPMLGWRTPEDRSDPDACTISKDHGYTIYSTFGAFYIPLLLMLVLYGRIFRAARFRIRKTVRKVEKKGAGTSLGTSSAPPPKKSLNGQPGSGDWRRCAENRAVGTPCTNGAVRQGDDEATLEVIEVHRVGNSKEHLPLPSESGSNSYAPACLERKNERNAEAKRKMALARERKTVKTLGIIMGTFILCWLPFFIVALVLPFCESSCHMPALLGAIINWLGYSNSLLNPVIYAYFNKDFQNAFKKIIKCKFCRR
Response field label: string, one of Fulfilled (Ki strictly below 0.01 µM) or Not fulfilled.

• COc1ccccc1N1CCN(CCN(C(=O)c2ccccc2)c2ccccn2)CC1 = Fulfilled
• COc1ccccc1N1CCN(CCN(C(=O)c2ccc(N)c(I)c2)c2ccccn2)CC1 = Not fulfilled
• COc1ccccc1N1CCN(CCN(C(=O)c2cccc(C)c2)c2ccccn2)CC1 = Not fulfilled
• COc1ccccc1N1CCN(CCN(C(=O)c2ccc(C)cc2)c2ccccn2)CC1 = Fulfilled
• CCCCCCc1ccc(C(=O)N(CCN2CCN(c3ccccc3OC)CC2)c2ccccn2)cc1 = Not fulfilled
